Below: a set of entries, each annotated with reported inhibition at 10 µM.
biological target: human B1R receptor (hB1R) (Homo sapiens, UniProt P46663); construct: expressed in transfected cells; host or cells: CHO K1 cells; test: Functional investigation on the bradykinin receptor 1 (B1R), FLIPR Ca2+ assay, hB1R cells; format: cell-based
Sequence (P46663 whole entry): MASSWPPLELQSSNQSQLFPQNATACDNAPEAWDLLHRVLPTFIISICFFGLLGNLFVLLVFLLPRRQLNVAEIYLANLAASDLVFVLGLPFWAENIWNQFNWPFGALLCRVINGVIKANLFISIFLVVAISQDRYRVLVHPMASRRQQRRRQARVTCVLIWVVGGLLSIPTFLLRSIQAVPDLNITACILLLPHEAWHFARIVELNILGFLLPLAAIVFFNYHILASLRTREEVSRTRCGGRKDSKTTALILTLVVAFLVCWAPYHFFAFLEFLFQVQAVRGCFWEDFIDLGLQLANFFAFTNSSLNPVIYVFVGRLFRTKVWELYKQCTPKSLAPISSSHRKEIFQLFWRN
Field: numeric (%). Do not append units.

Consider the following illustrative entries.
Compound: COc1cc(C)c(C(=O)N(C)Cc2nc3cccc(C(=O)N4CCC5(CC4)CCN(c4ccncc4)C5)c3[nH]2)c(C)c1 [I_CC-24]
inhibition at 10 µM [%]: 98

Compound: COc1cc(C)c(S(=O)(=O)N(C)C(C)c2nc3cccc(C(=O)N4CCC5(CC4)CCN(C(=O)c4cc(C)nn4C(C)(C)C)CC5)c3[nH]2)c(C)c1 (stereo not shown) [I_CC-55]
inhibition at 10 µM [%]: 71

Compound: Cc1cccc(Cl)c1S(=O)(=O)N(C)Cc1nc2ccc(C(=O)N3CCC4(CC3)CCN(c3ccncc3)CC4)cc2[nH]1 [I_23]
inhibition at 10 µM [%]: 100

Compound: COc1cc(C)c(S(=O)(=O)N(C)Cc2nc3cccc(C(=O)N4CCC5(CCC(N6CCC6)CC5)CC4)c3[nH]2)c(C)c1 [I_04]
inhibition at 10 µM [%]: 99

Compound: COc1cc(C)c(S(=O)(=O)N(C)Cc2nc3c(C(=O)N4CCC5(CC4)CCN(c4ccncc4)CC5)cccc3n2C)c(C)c1 [I_20]
inhibition at 10 µM [%]: 98

Compound: CN(Cc1nc2cccc(C(=O)N3CCC4(CC3)CCN(c3ccncc3)C4)c2[nH]1)C(=O)c1sccc1Cl [I_CC-09]
inhibition at 10 µM [%]: 15

Compound: COc1cc(C)c(S(=O)(=O)N(C)C(C)c2nc3cccc(C(=O)N4CCC5(CCN(Cc6c(C)noc6C)CC5)CC4)c3[nH]2)c(C)c1 (stereo not shown) [I_CC-42]
inhibition at 10 µM [%]: 76

Compound: COc1cc(C)c(S(=O)(=O)N(C)Cc2nc3cccc(C(=O)N4CCC5(CCN(c6ccncc6)C5)C4)c3[nH]2)c(C)c1 (stereo not shown) [I_10]
inhibition at 10 µM [%]: 100

Give inhibition at 10 µM; test system human B1R receptor (hB1R) (Homo sapiens, UniProt P46663); compound COc1cc(C)c(S(=O)(=O)N(C)c2nc3c(C(=O)N4CCC5(CC4)CCN(c4ccncc4)CC5)cccc3s2)c(C)c1 [I_CC-19] 54

Give inhibition at 10 µM; test system human B1R receptor (hB1R) (Homo sapiens, UniProt P46663); compound COc1cc(C)c(S(=O)(=O)N(C)Cc2nc3cccc(C(=O)N4CCC5(CC4)CC(c4ccncc4)=NO5)c3[nH]2)c(C)c1 [I_27] 93

Give inhibition at 10 µM for this entry on human B1R receptor (hB1R) (Homo sapiens, UniProt P46663): COc1cc(C)c(S(=O)(=O)N(C)C(C)c2nc3cccc(C(=O)N4CCC5(CC4)CCN(S(=O)(=O)c4ccc(F)c(C#N)c4)CC5)c3[nH]2)c(C)c1 (stereo not shown) [I_CC-58] 18

Answer briefly: inhibition at 10 µM recorded on human B1R receptor (hB1R) (Homo sapiens, UniProt P46663) for COc1cc(C)c(S(=O)(=O)N(C)CCc2nc3ccc(C(=O)N4CCC5(CC4)CCN(c4ccncc4)CC5)cc3[nH]2)c(C)c1 [I_26] 98

With human B1R receptor (hB1R) (Homo sapiens, UniProt P46663) as the test system, provide measured inhibition at 10 µM for this compound: COc1cc(C)c(S(=O)(=O)N(C)C(C)c2nc3cccc(C(=O)N4CCC5(CCN(C(=O)c6ccc(C(F)(F)F)cn6)CC5)CC4)c3[nH]2)c(C)c1 (stereo not shown) [I_CC-46] 42
